Could you please report measured log K for the items listed next?
METHOD_SUMMARY: Lipophilicity, log K of the compound
Assay type: physicochemical
DETAILS: octanol/water
Give the value as a plain number.

I have this compound here, CN(C)/C=N/NC(=O)c1ccncc1 , and I need its recorded log K.
0.252

I have this compound here, O=C(NN/C=N/C(=O)c1cnccn1)c1ccncc1 , and I need its recorded log K.
0.3562

I have this compound here, O=C(N/N=C/NCc1ccccn1)c1ccncc1 , and I need its recorded log K.
0.3343

I have this compound here, O=C(N/N=C/N1CCOCC1)c1ccncc1 , and I need its recorded log K.
0.2653

I have this compound here, O=C(N/N=C/NCc1ccccc1)c1ccncc1 , and I need its recorded log K.
0.5426

I have this compound here, CCC(CO)N1CCN(C(CC)CO)C1OS(=O)(=O)c1ccc(C)cc1 (configuration not stated) , and I need its recorded log K.
0.243

I have this compound here, O=C(N/N=C\N1CCN(c2cc3c(cc2F)c(=O)c(C(=O)O)cn3C2CC2)CC1)c1ccncc1 , and I need its recorded log K.
0.9159

I have this compound here, O=C(/N=C/Nc1ccc(C(=O)O)c(O)c1)c1cnccn1 , and I need its recorded log K.
0.3695

I have this compound here, O=C(N/N=C/Nc1ccc(C(=O)O)c(O)c1)c1ccncc1 , and I need its recorded log K.
0.366

I have this compound here, O=C(N/N=C/NNC(=O)c1ccncc1)c1ccncc1 , and I need its recorded log K.
0.3027

I have this compound here, CN(C)/C=N/C(=O)c1cnccn1 , and I need its recorded log K.
0.1718

I have this compound here, O=C(/N=C/N1CCN(c2cc3c(cc2F)c(=O)c(C(=O)O)cn3C2CC2)CC1)c1cnccn1 , and I need its recorded log K.
0.97
